Listed molecules paired with reported MIC
- Test system: Mycobacterium tuberculosis
- TEST_PROTOCOL: Antimicrobial activity against Mycobacterium tuberculosis H37Rv ATCC 27294 by microplate Almar blue assay
- Type: functional
- CONDITION_DETAILS: Mycobacterium tuberculosis, H37Rv ATCC 27294; read-out: MIC
Answer in µg/mL, number only, no unit symbol.

The examples below pair each entry with its known result.
MOLECULE	RESULT_UNITS	MIC
CC(C)C[C@@H](CN1CCCC1CN1CCNC[C@@H]1Cc1ccccc1)N1CCN(CCc2ccccc2)[C@@H](Cc2ccccc2)C1 (some centres undefined)	µg/mL	3.9
c1ccc(C[C@H]2CNCCN2C[C@@H]2CCCN2C[C@H](Cc2ccccc2)N2CCN(CC34CC5CC(CC(C5)C3)C4)[C@@H](Cc3ccccc3)C2)cc1	µg/mL	3.9
N=C1NC[C@H](Cc2ccccc2)N1CC1CCCN1C[C@H](Cc1ccccc1)N1C[C@H](Cc2ccccc2)N(CCC23CC4CC(CC(C4)C2)C3)C1=N (some centres undefined)	µg/mL	3.9
CC(C)[C@@H](CN1CCCC1CN1CCNC[C@@H]1Cc1ccccc1)N1CCN(CCc2ccccc2)[C@@H](Cc2ccccc2)C1 (some centres undefined)	µg/mL	3.9

For `NC[C@H](Cc1ccccc1)NC[C@@H]1CCCN1C[C@H](Cc1ccccc1)NC[C@H](Cc1ccccc1)NCCCC1CCCCC1` , what is its reported MIC?
3.13

Would you kindly repeat that for CCC(C)CCN1CCN([C@@H](Cc2ccccc2)CN2CCCC2CN2CCNC[C@@H]2Cc2ccccc2)C[C@@H]1Cc1ccccc1 (some centres undefined) ?
3.9

Let us now turn to CCC(C)CCN1C(=N)N([C@@H](Cc2ccccc2)CN2CCCC2CN2C(=N)NC[C@@H]2Cc2ccccc2)C[C@@H]1Cc1ccccc1 (some centres undefined)
7.8

Another molecule to check: `NC[C@H](Cc1ccc2ccccc2c1)NC[C@@H]1CCCN1C[C@H](Cc1ccccc1)NC[C@H](Cc1ccccc1)NCCc1ccccc1`
6.25

Let us now turn to FC(F)(F)c1cccc(CCN2CCN([C@@H](Cc3ccccc3)CN3CCCC3CN3CCNC[C@@H]3Cc3ccccc3)C[C@@H]2Cc2ccccc2)c1 (some centres undefined)
3.9

Next: Fc1ccc(CCN2CCN([C@@H](Cc3ccccc3)CN3CCCC3CN3CCNC[C@@H]3Cc3ccccc3)C[C@@H]2Cc2ccccc2)cc1 (some centres undefined)
3.9

What do we get for `NC[C@H](Cc1ccccc1)NC[C@@H]1CCCN1C[C@H](Cc1ccccc1)NC[C@H](Cc1ccccc1)NCCC1CCCCC1` ?
6.25

Field entry: `NC[C@H](Cc1ccccc1)NC[C@@H]1CCCN1C[C@H](Cc1ccccc1)NC[C@H](Cc1ccccc1)NCCCC1CCCC1`
6.25

Follow-up entry: COc1ccc(CCN2CCN([C@@H](Cc3ccccc3)CN3CCCC3CN3CCNC[C@@H]3Cc3ccccc3)C[C@@H]2Cc2ccccc2)cc1 (some centres undefined)
3.9

Origin of values: ChEMBL document CHEMBL1153803
